Where do the numbers come from? From ChEMBL document CHEMBL2157860.

half-life values for the molecules below.
assay: Half life in CD1 mouse at 0.5 mg/kg, iv; format: ADME, organism-based; set-up: dose 0.5 mg/kg, route intravenous; conditions: CD1, mouse, in vivo
Please reply with the bare figure in h and do not write the unit itself.

Look over these answered cases.
1. N#Cc1c[nH]c(C(=O)Nc2ccc(C3CCN(CC(N)=O)CC3)cc2C2=CCCCC2)n1 | 1.39
2. CN(C)CC(=O)N1CCC(c2ccc(NC(=O)c3nc(C#N)c[nH]3)c(C3=CCCCC3)c2)CC1 | 1.36

Shift focus to the following entry.
## Input Look up and state reported half-life for CC(=O)N1CCC(c2ccc(NC(=O)c3nc(C#N)c[nH]3)c(C3=CCCCC3)c2)CC1
## Output 1.2

* * *

half-life values for the compounds below.
experiment: Half life in CD1 mouse at 5 mg/kg, po; assay type: ADME, organism-based; set-up: dose 5 mg/kg, route oral; conditions: in vivo
Please reply with the bare figure in h and do not write the unit itself.

1. CS(=O)(=O)CC(=O)N1CCC(c2ccc(NC(=O)c3nc(C#N)c[nH]3)c(C3=CCCCC3)c2)CC1 | 1.55
2. N#Cc1c[nH]c(C(=O)Nc2ccc(C3CCNCC3)cc2C2=CCCCC2)n1.O=C(O)C(F)(F)F | 2

Shift focus to the following entry.
## Input Look up and state reported half-life for N#Cc1c[nH]c(C(=O)Nc2ccc(C3CCN(CCN4CCOCC4)CC3)cc2C2=CCCCC2)n1
## Output 2.37

* * *

experiment: Metabolic stability in human liver microsomes assessed as compound remaining after 10 mins; assay type: ADME, Microsome; details: read-out: Stability
Measure name: remaining at 10 min
Kindly format the answer as number then unit.

Look over these answered cases.
1. CN(CCO)CC(=O)N1CCC(c2ccc(NC(=O)c3nc(C#N)c[nH]3)c(C3=CCCCC3)c2)CC1 | 69%
2. N#Cc1c[nH]c(C(=O)Nc2ccc(C3CCN(C(=O)Cc4ccccn4)CC3)cc2C2=CCCCC2)n1 | 34%
3. N#Cc1c[nH]c(C(=O)Nc2ccc(C3CCN(Cc4ccccn4)CC3)cc2C2=CCCCC2)n1 | 75%

Shift focus to the following entry.
## Input Look up and state reported remaining at 10 min for N#Cc1c[nH]c(C(=O)Nc2ccc(C3CCN(C(=O)CCN4CCOCC4)CC3)cc2C2=CCCCC2)n1
## Output 57%
